# Test system: A498
# ASSAY NOTES: NCI tumour cell line growth inhibition, 48 h
Calls of active or inactive are those of the source. No stated cut-off is given here; in the data, active = GI50 up to about 1.1 µM and inactive = higher.
Please go through the items and note down their GI50.

Answered cases to consult:
{"columns": ["QUERY SMILES", "GI50"],
 "data": [
  ["O=C(COc1ccc2c(=O)cc(-c3ccc(Cl)cc3)oc2c1)N1CCN(c2ccccc2)CC1", "5.69 µM (inactive)"],
  ["CSc1nc(-c2ccccc2)c2c(n1)-c1ccccc1CC2", "> 100 µM (inactive)"],
  ["NC(=O)c1ccc2c(c1)S(=O)(=O)c1ccccc1C2=O", "> 100 µM (inactive)"],
  ["CN(C=O)/C=C/c1cc(O)ccc1O", "> 68.2 µM (inactive)"]
]}

Note: attention shifts to another entry.
Entry CCOC(=O)C1(C(=O)OCC)OC(=O)NC2=C1CCCC2 , GI50 reported as > 100 µM (inactive)

Values compiled from ChEMBL document CHEMBL1201862.
